# Target Or Test System: human calcium receptor (Homo sapiens, UniProt P41180)
# Sequence (P41180 20-1078): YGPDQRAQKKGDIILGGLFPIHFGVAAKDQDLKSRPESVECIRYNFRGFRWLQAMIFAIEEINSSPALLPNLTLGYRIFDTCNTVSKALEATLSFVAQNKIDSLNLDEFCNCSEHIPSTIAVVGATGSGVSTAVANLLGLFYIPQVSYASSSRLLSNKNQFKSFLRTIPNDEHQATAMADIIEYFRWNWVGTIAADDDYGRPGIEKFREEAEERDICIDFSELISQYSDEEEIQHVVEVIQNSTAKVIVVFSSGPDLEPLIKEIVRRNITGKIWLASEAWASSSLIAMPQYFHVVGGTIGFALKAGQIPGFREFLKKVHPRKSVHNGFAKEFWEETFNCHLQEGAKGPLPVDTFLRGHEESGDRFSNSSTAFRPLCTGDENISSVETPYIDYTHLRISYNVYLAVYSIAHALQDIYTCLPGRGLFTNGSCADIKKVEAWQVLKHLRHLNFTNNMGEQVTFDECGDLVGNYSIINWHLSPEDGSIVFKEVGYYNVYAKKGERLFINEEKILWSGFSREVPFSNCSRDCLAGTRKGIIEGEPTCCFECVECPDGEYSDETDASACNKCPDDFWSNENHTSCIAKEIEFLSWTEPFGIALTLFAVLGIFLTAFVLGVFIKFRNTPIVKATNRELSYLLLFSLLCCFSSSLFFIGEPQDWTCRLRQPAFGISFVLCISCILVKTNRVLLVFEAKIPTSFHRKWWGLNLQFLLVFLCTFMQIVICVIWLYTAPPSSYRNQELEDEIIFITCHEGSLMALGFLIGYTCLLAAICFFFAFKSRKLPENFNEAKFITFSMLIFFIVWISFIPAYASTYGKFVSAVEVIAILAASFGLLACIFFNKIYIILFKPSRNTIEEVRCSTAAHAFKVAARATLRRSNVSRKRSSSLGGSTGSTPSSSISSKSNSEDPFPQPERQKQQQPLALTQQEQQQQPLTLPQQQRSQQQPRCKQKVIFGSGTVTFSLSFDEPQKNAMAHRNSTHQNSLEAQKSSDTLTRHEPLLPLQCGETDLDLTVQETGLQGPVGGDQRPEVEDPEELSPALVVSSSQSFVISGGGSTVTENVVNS
# Procedure Text: Evaluation of antagonistic action on calcium receptor using reporter gene (luciferase)
# Condition Label: transformed rat adrenal derived cells, 5 mM calcium chloride, culture 4 hrs, luciferase activity; read-out: Reporter gene assay (IC50, concentration showing 50% inhibitory rate)
pIC50: −log10 of the molar value.
Observable: pIC50

// known answers, use as guide
C[C@@H](OC[C@H](O)CNC(C)(C)Cc1ccc2ccccc2c1)c1ccccc1-c1ccc(C(=O)O)c(Cl)n1 [Example 1-35] = 8.00
Cc1cc(-c2ccccc2[C@@H](C)OC[C@H](O)CNC(C)(C)Cc2ccc(C(F)(F)F)c(F)c2)ccc1C(=O)O [Example 1-92] = 7.66
Cc1ccc(CC(C)(C)NC[C@@H](O)CO[C@H](C)c2ccccc2-c2ccc(C(=O)O)c(C)c2)cc1F [Example 1-16] = 7.96
CCc1ccc(CC(C)(C)NC[C@@H](O)CO[C@H](C)c2ccccc2-c2ccc(C(=O)O)c(C)c2)cc1 [Example 1-24] = 7.70
C[C@@H](OC[C@H](O)CNC(C)(C)Cc1ccc2ccccc2c1)c1ccccc1-c1cc(C(=O)O)ccc1F [Example 1-58] = 7.68

(P) CC(OC[C@H](O)CNC(C)(C)Cc1ccc(Cl)cc1F)c1ccccc1Oc1ccc(C(=O)O)cc1 (stereo partly shown) [Example 2-6]
(Q) Cc1ccc(CC(C)(C)NC[C@@H](O)CO[C@H](C)c2ccccc2OCc2ccc(C(=O)O)cc2)cc1F [Example 2-24]
In: Which one would you say has the larger pIC50 value: P , or Q ? Write down the label attached to your selection.
Out: P

Every entry's value here was drawn from patent US7304174B2.
